The reported measurements were obtained from PubChem BioAssay (NCATS).

protocol_description: Quantitative High-Throughput drug screen in 47 multiple myeloma cell lines against the NCATS MIPE library collection: EJM_DSMZ cell viability assay (AID 1918926; also: nearly all actives have a fitted effect of over 30% in size)
condition_summary: EJM myeloma cell viability, CellTiter-Glo ATP, 48 h; series mostly up to 45.8 µM
Records with an inconclusive call do not appear. Calls of active or inactive are those of the source. Calls follow the shape of the dose curve; as a rule, active = well fitted cell-killing curve with a large enough effect; inconclusive = small, poorly fitted or top-dose-only effect, or effect the other way; inactive = no such curve, though single readings can be large or run the other way.
One label from this list, please: True (active), False (inactive)

Below are worked cases with known answers.
1) CN1C(=O)C[C@H](C(=O)N[C@@H](Cc2cnc[nH]2)C(=O)N2CCC[C@@H]2C(N)=O)NC1=O = False
2) CCCCC[C@H](O)C=C[C@H]1[C@H](O)CC(=O)[C@H]1CCCCCCC(=O)O = False
3) Cc1ccc(NC(=O)Nc2cc(C(F)(F)F)ccc2F)cc1Nc1ccc2c(c1)NC(=O)C2=Cc1ccc[nH]1 = True
4) C[C@@H](NC(=O)c1ncnc(N)c1Cl)c1ncc(C(=O)Nc2cc(C(F)(F)F)c(Cl)cn2)s1 = False
5) NS(=O)(=O)c1ccc(Nc2nc(OCC3CCCCC3)c3[nH]cnc3n2)cc1 = True

Attention now shifts to the item below.
Given CN1CCN2c3ncccc3Cc3ccccc3C2C1 (stereo unspecified) , state the outcome it received in this test.
False

====

protocol_description: Quantitative High-Throughput drug screen in 47 multiple myeloma cell lines against the NCATS MIPE library collection: KMM1_JCRB cell viability assay (AID 1918960); also: nearly all actives have a fitted effect of over 30% in size
condition_summary: KMM1 myeloma viability, CellTiter-Glo ATP luminescence, 48 h; series mostly up to 45.8 µM
Description: PI: Beverly A. Mock Ph.D. Laboratory of Cancer Biology and Genetics, Center for Cancer Research, National Cancer Institute, National Institute of Health, Bethesda, Maryland […] 5; Detector; 425V; Luminescence; Viewlux PerkinElmer. […] 1. […] Briefly, the corresponding myeloma cell lines were screened in 1,536-well plates with 500 cells, 5-uL per well for inhibition of cell viability (assessed by measuring ATP levels with CellTiterGlo). […]
Inconclusive results are not listed. The source made the active and inactive calls. Calls follow the shape of the dose curve; as a rule, active = well fitted cell-killing curve with a large enough effect; inconclusive = small, poorly fitted or top-dose-only effect, or effect the other way; inactive = no such curve, though single readings can be large or run the other way.
The reply should name one outcome from true for active, false for inactive

Known results for molecules:
1) CN(C)CC[C@H](CSc1ccccc1)Nc1ccc(S(=O)(=O)NC(=O)c2ccc(N3CCN(Cc4ccccc4-c4ccc(Cl)cc4)CC3)cc2)cc1[N+](=O)[O-] = true
2) CN(C)N=Nc1nc[nH]c1C(N)=O = true
3) Cc1ccc2c(=O)c3cccc(CC(=O)O)c3oc2c1C = false

Field: next molecule
Kindly provide the recorded test outcome for the following molecule: `COc1cc2ncn(-c3cc(OCc4ccccc4S(C)(=O)=O)c(C#N)s3)c2cc1OC`
false

====

protocol_description: Quantitative High-Throughput drug screen in 47 multiple myeloma cell lines against the NCATS MIPE library collection: JIM3_ECACC cell viability assay (AID 1918963; also: nearly all actives have a fitted effect of over 35% in size)
condition_summary: JIM3 myeloma viability, CellTiter-Glo ATP, 48 h; series mostly up to 45.8 µM
Records with an inconclusive call do not appear. Activity calls are given as the source filed them. Calls come from the whole dose curve; as a rule, active = well fitted cell-killing curve with a large enough effect; inconclusive = small, poorly fitted or top-dose-only effect; inactive = no such curve, though single readings can be large or run the other way.
Field 'call' accepts active, inactive

1. NC[C@H]1O[C@H](O[C@@H]2[C@@H](O)[C@@H](O[C@H]3O[C@H](CO)[C@@H](O)[C@H](N)[C@@H]3O)[C@H](N)C[C@@H]2N)[C@H](O)[C@@H](O)[C@H]1O = inactive
2. COc1nccc(-c2c(-c3ccc(F)cc3)ncn2C2CCC(O)CC2)n1 (centres undefined) = inactive

Could you check what this test reported for `CCCCC(C)(C)[C@H](O)C=C[C@H]1[C@H](O)CC(=O)[C@H]1CC=CCCCC(=O)O` ?
active

# fetch the recorded call for `CCC(=C(CC)c1ccc(O)cc1)c1ccc(O)cc1` here
inactive

Please state the recorded outcome for this molecule: `C#C[C@]1(O)CC[C@H]2[C@H]3CCc4cc(OC)ccc4[C@H]3CC[C@@]21C`
inactive

For `CCC[C@@H](NC(=O)[C@@H]1[C@H]2CCC[C@@H]2CN1C(=O)[C@@H](NC(=O)[C@@H](NC(=O)c1cnccn1)C1CCCCC1)C(C)(C)C)C(=O)C(=O)NC1CC1` , which call appears in the assay record?
active

Assay result, entry O=C(O)C1=CC(O)C(O)[C@H](O)C1 (some centres undefined) — outcome?
inactive

What call does the record list for `CC[C@H](CC#N)OC(=O)N[C@@H](C)c1cccc(NC(=O)Nc2ccc(-c3cnco3)c(OC)c2)c1` ?
active

Kindly provide the recorded test outcome for the following molecule: CC1CNc2c(cccc2S(=O)(=O)N[C@@H](CCCN=C(N)N)C(=O)N2CC[C@@H](C)C[C@@H]2C(=O)O)C1 (some centres undefined)
inactive

Dear all, I need the recorded test outcome for `CC(C)(F)C[C@H](N[C@@H](c1ccc(-c2ccc(S(C)(=O)=O)cc2)cc1)C(F)(F)F)C(=O)NC1(C#N)CC1` , thank you.
active

Tell me the recorded outcome of this test for `C[C@@]1(c2cc(-c3cncnc3)c(F)cc2F)CCSC(N)=N1` .
active

Could you please tell me the result logged for `COc1cc2c(cc1Cc1cccc(Cl)c1F)c(=O)c(C(=O)O)cn2[C@H](CO)C(C)C` in this assay?
active

Answer briefly: the call reported for `C[C@]12CC[C@@H]3c4ccc(O)cc4CC[C@H]3[C@H]1[C@@H](O)[C@@H](O)[C@H]2O` in this assay.
inactive

So what was the verdict on `COc1c(C)c2c(c(O)c1CC=C(C)CCC(=O)O)C(=O)OC2` in this test?
active
